# System: nude mice, LX-1 lung xenograft intrarenal, tumor weight T/C
# EXPERIMENTAL_DETAILS: NCI In Vivo Anticancer Drug Screen. Data for tumor model Human Lung LX-1 Xenograft (intrarenal inoculation) in NU/NU Swiss (nude) mice
# TEST_SETTINGS: endpoint: mean tumor weight change; dose: 800.0 mg/kg/injection; schedule: Q04DX003 (sc); vehicle: Klucel (hydroxypropylcellulose) (HPC); higher = larger tumour
Results filed as inconclusive are left out.
Each entry below lists one item and its recorded T/C value.

Look over these answered cases.
INPUT: Would you kindly share the measured T/C for `COc1ccc2c(c1)CCC(c1ccccc1)=C2c1ccc(OCCN2CCCC2)cc1` ?
OUTPUT: 101 % of control

INPUT: Quick one: T/C of `CSc1nc(=O)[nH]nc1SCc1ccccc1` ?
OUTPUT: 68 % of control

INPUT: Look at this compound and give its reported T/C. `O=Cc1ccccc1`
OUTPUT: 112 % of control

INPUT: Sample `CNC(=O)OCc1c(COC(=O)NC)c(C)n(-c2ccc(OC)cc2)c1C` — what was its T/C?
OUTPUT: 87 % of control

INPUT: Item Ic1ncnc2c1ncn2C1CCCO1 (stereo not drawn) has what recorded T/C?
OUTPUT: 107 % of control

INPUT: Please look up its T/C: `O=S(=O)(SC(S(=O)(=O)c1ccccc1)S(=O)(=O)c1ccccc1)c1ccccc1`
OUTPUT: 77 % of control

---
INPUT: Which value of T/C has been reported for CCCCCCCCCCCCCCC/C([O-])=N/[N+](C)(C)CC(C)O (stereo not drawn) in the records?
OUTPUT: 77 % of control

INPUT: Given the entry `C[C@H]1C[C@@H]2[C@H]([C@@H](O)C[C@@]3(C)[C@H]2CC[C@]3(O)C(=O)CO)[C@@]2(C)C=CC(=O)C=C12` , report its measured T/C.
OUTPUT: 59 % of control

Hello, the source for this data is PubChem BioAssay AID264, in case you need it.
